These measurements were taken from the supplement of paper PMC3334620.

- experimentalSystem: Ybr033w (UniProt P38073)
- Sequence: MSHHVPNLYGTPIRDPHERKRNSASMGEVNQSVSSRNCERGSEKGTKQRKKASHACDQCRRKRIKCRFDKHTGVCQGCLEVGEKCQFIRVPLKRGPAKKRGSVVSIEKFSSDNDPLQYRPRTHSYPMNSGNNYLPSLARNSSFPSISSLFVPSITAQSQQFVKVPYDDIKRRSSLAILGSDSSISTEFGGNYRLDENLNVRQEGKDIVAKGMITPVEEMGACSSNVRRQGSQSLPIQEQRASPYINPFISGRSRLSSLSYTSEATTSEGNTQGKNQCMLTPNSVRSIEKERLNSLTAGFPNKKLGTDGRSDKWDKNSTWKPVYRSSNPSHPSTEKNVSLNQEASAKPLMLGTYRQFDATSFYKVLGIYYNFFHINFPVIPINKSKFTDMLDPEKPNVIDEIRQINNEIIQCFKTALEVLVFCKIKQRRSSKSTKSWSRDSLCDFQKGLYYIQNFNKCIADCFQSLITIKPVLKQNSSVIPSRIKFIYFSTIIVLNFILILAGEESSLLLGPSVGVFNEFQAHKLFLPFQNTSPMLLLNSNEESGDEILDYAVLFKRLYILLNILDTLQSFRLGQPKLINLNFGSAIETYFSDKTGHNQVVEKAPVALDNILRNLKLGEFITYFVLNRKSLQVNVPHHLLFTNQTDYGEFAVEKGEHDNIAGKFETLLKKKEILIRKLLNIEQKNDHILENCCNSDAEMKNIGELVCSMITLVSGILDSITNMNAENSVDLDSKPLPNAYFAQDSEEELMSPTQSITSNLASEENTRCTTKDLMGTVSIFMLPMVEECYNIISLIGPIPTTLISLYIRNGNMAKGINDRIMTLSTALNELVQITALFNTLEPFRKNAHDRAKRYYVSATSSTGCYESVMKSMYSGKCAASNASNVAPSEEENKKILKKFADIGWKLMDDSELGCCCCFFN
- method: PBM E-score (8-mer binding enrichment) (E-score (-0.5 to 0.5)); higher = stronger / more preferred TF binding
- experimentalParameters: protein concentration: 200 nM; construct: GST-full length
Over roughly 33,000 sequences, “E-score (-0.5 to 0.5)” has its median near -0.012; the highest 2% begin near 0.29. The list comes from a sample in which the highest values are over-represented; it also holds close analogues and randomly drawn sequences.
Answer N if PBM E-score is under -0.07, and Y if it is -0.07 or more.

monomersequence=AAATTGAA experimentalsystem="Ybr033w (UniProt P38073)" assignedcategory=Y

## Task Exam item: decide whether the reported PBM E-score for "AAGATCCG" is at least -0.07.
## Result N

## Task Can "AGGTGCAG" be said to have PBM E-score at or above -0.07?
## Result N

## Task # check: PBM E-score of "CACAGAGC" is greater than or equal to -0.07
## Result N

====

- experimentalSystem: Ybr033w (UniProt P38073)
- Sequence: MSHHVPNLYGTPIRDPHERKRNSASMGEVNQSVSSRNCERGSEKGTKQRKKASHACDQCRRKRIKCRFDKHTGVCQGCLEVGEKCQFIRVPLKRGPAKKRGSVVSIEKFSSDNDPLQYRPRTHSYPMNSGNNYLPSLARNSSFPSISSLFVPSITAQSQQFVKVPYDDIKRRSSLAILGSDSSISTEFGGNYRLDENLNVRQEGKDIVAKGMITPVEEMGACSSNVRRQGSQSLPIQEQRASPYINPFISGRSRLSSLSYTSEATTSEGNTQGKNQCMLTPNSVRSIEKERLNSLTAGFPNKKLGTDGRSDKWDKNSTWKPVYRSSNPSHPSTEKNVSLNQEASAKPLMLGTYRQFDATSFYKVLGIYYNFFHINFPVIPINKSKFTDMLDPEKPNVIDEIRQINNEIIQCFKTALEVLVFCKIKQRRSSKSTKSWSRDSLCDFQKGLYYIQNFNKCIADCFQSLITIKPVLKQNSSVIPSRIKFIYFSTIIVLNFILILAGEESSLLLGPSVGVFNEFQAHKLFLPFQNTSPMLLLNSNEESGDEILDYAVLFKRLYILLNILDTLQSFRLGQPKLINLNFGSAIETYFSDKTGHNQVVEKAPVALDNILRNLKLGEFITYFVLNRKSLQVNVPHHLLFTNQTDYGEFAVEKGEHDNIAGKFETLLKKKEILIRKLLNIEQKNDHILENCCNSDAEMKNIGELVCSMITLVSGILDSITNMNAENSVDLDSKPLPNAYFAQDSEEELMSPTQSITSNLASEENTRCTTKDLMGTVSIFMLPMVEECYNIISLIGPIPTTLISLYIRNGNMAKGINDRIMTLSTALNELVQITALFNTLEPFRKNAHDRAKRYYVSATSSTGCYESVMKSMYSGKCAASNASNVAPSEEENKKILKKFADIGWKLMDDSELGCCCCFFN
- method: PBM E-score (8-mer binding enrichment) (E-score (-0.5 to 0.5)); higher = stronger / more preferred TF binding
- experimentalParameters: protein concentration: 200 nM; construct: GST-full length
The full ranking holds about 33,000 sequences; the median of “E-score (-0.5 to 0.5)” is about -0.012, and the highest 2% start at about 0.29. The sample holds the highest values, similar sequences and a random draw of the others, so the mix is not that of the screen.
Decision: PBM E-score compared against 0.2; not below it gives true, below it gives false.

Solved cases (3 shown):
monomersequence=AGATTTCC assignedcategory=false
monomersequence=AGGCTCAT assignedcategory=false
monomersequence=ATAAAATG assignedcategory=true

## Task Textbook exercise: given the entry "AATTAATC" , state whether its PBM E-score is greater than or equal to 0.2.
## Result true

## Task Is the recorded value of PBM E-score equal to or greater than 0.2 for this sequence? "CTAAAAAA"
## Result true

## Task Could you verify whether the entry "AAATAAAT" shows PBM E-score of no less than 0.2?
## Result true

## Task Identify whether the reported PBM E-score of the following sequence is 0.2 or greater: "ACTATTGA"
## Result true

## Task I'd appreciate it if you could say whether "AAAATCAA" has PBM E-score at least equal to 0.2.
## Result true

## Task Assess whether reported PBM E-score for "CCGAAATC" sits at 0.2 or higher.
## Result false

## Task Kindly determine if PBM E-score recorded for "CCGCGTGC" is above or exactly 0.2.
## Result false

## Task Test whether the sequence "CCTGAGCA" records PBM E-score of 0.2 or higher.
## Result false

## Task Decide: PBM E-score of "GTTAAATA" >= 0.2?
## Result true

====

- experimentalSystem: Ybr033w (UniProt P38073)
- Sequence: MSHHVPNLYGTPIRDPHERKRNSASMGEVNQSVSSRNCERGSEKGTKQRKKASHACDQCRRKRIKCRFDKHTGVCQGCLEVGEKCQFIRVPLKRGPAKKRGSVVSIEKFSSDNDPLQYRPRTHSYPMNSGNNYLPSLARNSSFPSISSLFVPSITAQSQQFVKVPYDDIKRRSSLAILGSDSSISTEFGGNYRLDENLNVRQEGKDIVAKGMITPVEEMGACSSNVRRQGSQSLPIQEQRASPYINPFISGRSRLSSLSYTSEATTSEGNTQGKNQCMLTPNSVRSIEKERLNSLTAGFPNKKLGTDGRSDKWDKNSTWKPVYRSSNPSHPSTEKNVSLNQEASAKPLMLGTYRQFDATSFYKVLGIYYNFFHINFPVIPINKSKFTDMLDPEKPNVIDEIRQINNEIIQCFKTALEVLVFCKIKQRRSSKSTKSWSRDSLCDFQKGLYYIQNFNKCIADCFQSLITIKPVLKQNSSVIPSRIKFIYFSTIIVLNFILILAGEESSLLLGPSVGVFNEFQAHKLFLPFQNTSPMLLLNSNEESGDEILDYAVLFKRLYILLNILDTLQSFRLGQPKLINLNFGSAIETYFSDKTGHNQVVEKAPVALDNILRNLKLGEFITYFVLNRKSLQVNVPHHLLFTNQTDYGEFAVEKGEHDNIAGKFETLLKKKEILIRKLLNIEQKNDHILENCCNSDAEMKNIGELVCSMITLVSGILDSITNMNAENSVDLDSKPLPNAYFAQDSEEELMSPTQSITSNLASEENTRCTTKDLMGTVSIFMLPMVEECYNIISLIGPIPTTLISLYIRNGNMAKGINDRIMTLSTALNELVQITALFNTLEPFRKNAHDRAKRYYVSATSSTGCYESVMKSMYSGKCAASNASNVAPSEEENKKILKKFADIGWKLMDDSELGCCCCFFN
- method: PBM E-score (8-mer binding enrichment) (E-score (-0.5 to 0.5)); higher = stronger / more preferred TF binding
- experimentalParameters: protein concentration: 200 nM; construct: GST-full length
The full ranking holds about 33,000 sequences; the median of “E-score (-0.5 to 0.5)” is about -0.012, and the highest 2% start at about 0.29. Only a selection was taken, and the highest values are over-represented in it overall.
property: PBM E-score

Example sequences with recorded PBM E-score:
monomersequence=TCGAACAA property="PBM E-score" result=0.138
monomersequence=AAAATTCG property="PBM E-score" result=0.279
monomersequence=CATTCGCG property="PBM E-score" result=0.0443
monomersequence=CGGTTGGA property="PBM E-score" result=0.0125
monomersequence=AGGAACAT property="PBM E-score" result=0.399

## Task PBM E-score lookup needed for "GAAATTAC" , thanks.
## Result 0.255

## Task For the sequence shown here, "AAAATTCA" , give the reported PBM E-score.
## Result 0.359

## Task What value of measured PBM E-score is listed for "AAATTTGG" ?
## Result 0.0261

## Task What does the record list as PBM E-score for "AAAATTAT" ?
## Result 0.358

## Task Query (sequence): "AACTACTC" ; field requested: PBM E-score
## Result 0.119
